# systemTested: B-Raf (V600E)-kinase (Homo sapiens, UniProt P15056, V600E)
# Sequence (P15056 whole entry V600E): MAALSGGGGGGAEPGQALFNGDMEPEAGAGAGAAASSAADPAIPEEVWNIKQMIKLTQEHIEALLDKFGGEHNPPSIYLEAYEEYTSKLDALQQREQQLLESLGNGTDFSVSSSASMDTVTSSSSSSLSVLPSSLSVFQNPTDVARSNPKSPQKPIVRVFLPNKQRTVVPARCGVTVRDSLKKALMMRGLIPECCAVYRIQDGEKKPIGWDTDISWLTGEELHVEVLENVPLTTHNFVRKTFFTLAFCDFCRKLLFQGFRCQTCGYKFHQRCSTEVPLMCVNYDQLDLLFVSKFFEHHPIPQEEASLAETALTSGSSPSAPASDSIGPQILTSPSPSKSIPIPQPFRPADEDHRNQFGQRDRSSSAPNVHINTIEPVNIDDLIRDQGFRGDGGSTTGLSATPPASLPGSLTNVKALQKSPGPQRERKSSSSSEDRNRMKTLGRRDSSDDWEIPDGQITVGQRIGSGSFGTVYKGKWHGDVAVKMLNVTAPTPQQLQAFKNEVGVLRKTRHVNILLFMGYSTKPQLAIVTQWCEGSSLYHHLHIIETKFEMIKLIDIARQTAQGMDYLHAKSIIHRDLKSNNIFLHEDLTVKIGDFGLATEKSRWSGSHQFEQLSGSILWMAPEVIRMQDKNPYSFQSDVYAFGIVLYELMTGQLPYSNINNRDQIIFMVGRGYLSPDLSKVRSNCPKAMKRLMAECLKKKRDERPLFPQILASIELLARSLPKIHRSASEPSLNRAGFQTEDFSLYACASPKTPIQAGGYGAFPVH
# methodSummary: Kinase test B-Raf (V600E)
# Type: biochemical
# setupConditions: compound concentration 2 μM; 100% = no inhibition, 0% = total inhibition; read-out: % CTL (residual activity of the enzyme relative to DMSO control)
The threshold is 2%. Values of remaining activity at 2 µM beneath it are tagged condition met; values meeting or exceeding it are tagged condition not met.

Sample answers from the record:
compound | groupLabel
CCOCCN1CCN(c2cncc(-c3cn(-c4cc(C(=O)Nc5cc(C(C)(C)C)on5)cnc4C)nn3)c2)CC1 [Example I-170] | condition not met
Cc1ncc(C(=O)Nc2cc(NCCN(C)C)cc(C(F)(F)F)c2)cc1-n1cc(-c2cnn(C)c2C)nn1 [Example I-78] | condition not met
Cc1ncc(C(=O)Nc2cc(C(C)(C)C)on2)cc1-n1cc(-c2cncnc2)nn1 [Example I-21] | condition not met
Cc1ncc(C(=O)Nc2cc(C(C)(C)C)on2)cc1-n1cc(-c2cncc(CN)c2)nn1 [Example I-194] | condition not met

Query :: Could you please tell me whether remaining activity at 2 µM recorded for COc1cncc(-c2cn(-c3cc(C(=O)Nc4cc(C(F)(F)F)ccn4)cnc3C)nn2)c1 [Example I-29] is less than 2%?
Result :: condition not met

Query :: Could you please tell me whether remaining activity at 2 µM recorded for Cc1ncc(C(=O)Nc2cc(C(C)(C)C)on2)cc1-n1cc(-c2cncc(N(C)C3CCOC3)c2)nn1 (stereo not drawn) [Example I-38] is less than 2%?
Result :: condition not met

Query :: Could you please tell me whether remaining activity at 2 µM recorded for Cc1ncc(C(=O)Nc2ccnc(C(C)(C)C)c2)cc1-n1cc(-c2cncc(N3CCN(C)CC3)c2)nn1 [Example I-178] is less than 2%?
Result :: condition not met

Query :: Could you please tell me whether remaining activity at 2 µM recorded for Cc1ncc(C(=O)Nc2cc(CNC3CC3)cc(C(F)(F)F)c2)cc1-n1cc(-c2cnn(C)c2C)nn1 [Example I-111] is less than 2%?
Result :: condition met

Query :: Could you please tell me whether remaining activity at 2 µM recorded for Cc1ncc(C(=O)Nc2cc(CN3CCCC3)cc(C(F)(F)F)c2)cc1-n1cc(-c2cncnc2)nn1 [Example I-72] is less than 2%?
Result :: condition not met

----------
Listing of entries alongside the reported remaining activity at 1.43 µM.
# systemTested: B-Raf (V600E)-kinase (Homo sapiens, UniProt P15056, V600E)
# methodSummary: Kinase test B-Raf (V600E)
# Assay type: biochemical
# setupConditions: measurement at 1.43 μM (***); 100% = no inhibition, 0% = total inhibition; read-out: % CTL (residual activity of the enzyme relative to DMSO control)
Reply numerically in %, unit not repeated.

Worked cases, answers included:
molecule | systemTested | remaining activity at 1.43 µM, %
COc1c(CNCC(C)C)cc(C(F)(F)F)cc1NC(=O)c1cnc(C)c(-n2cc(-c3cnn(C)c3C)nn2)c1 [Example I-105] | B-Raf (V600E)-kinase (Homo sapiens, UniProt P15056, V600E) | 2
Cc1ncc(NC(=O)c2cccc(C(C)(C)C#N)c2)cc1-n1cc(-c2cccnc2)nn1 [XII-11] | B-Raf (V600E)-kinase (Homo sapiens, UniProt P15056, V600E) | 1.5
Cc1ncc(C(=O)Nc2cc(C(F)(F)F)cc(N3CCCC3)c2C)cc1-n1cc(-c2cnn(C)c2C)nn1 [Example I-121] | B-Raf (V600E)-kinase (Homo sapiens, UniProt P15056, V600E) | 2.3

For the molecule Cc1ncc(C(=O)Nc2cc(C(F)(F)F)cc(N3CCN(C)CC3)c2C)cc1-n1cc(-c2cnn(C)c2C)nn1 [Example I-101] , the measured remaining activity at 1.43 µM on B-Raf (V600E)-kinase (Homo sapiens, UniProt P15056, V600E) was 1.3

For the molecule Cc1ncc(C(=O)Nc2cc(N3CC[C@@H](N(C)C)C3)cc(C(F)(F)F)c2)cc1-n1cc(-c2cnn(C)c2C)nn1 [Example I-76] , the measured remaining activity at 1.43 µM on B-Raf (V600E)-kinase (Homo sapiens, UniProt P15056, V600E) was 2
